Test system: L1210 leukemia ip in BDF1 mice, survival T/C
experiment: NCI In Vivo Anticancer Drug Screen. Data for tumor model L1210 Leukemia (intraperitoneal) in B6D2F1 (BDF1) mice
cond: endpoint: mean survival time; dose: 100.0 mg/kg/injection; schedule: Q01DX001 (ip); vehicle: other
Inconclusive results and toxic doses are left out. Rule as the data show it: active = T/C of 150% or more; inactive = T/C below 125%.
Answer with one of the outcomes given here: active, inactive

Hello, I am checking results. What call was entered for `CCCCCCCCCCSS(=O)(=O)O` ?
inactive

For this molecule, state the assay outcome: `CCOC(=O)Nc1cc2c(c(N)n1)N=C(CN(C)c1ccc(C(=O)OC)cc1)CN2`
inactive

Look up the recorded call for COC(=O)C(O)(C#CC(C)(C)C)c1ccccc1 (stereo not drawn) in this test.
inactive

Each molecule tested received a call. Report the one for `ClCCN1CCOC1=Nc1ccccc1` .
inactive

In this assay, the call recorded for `Nc1nc(N)c2cc(CNc3ccc(C(=O)NC(CC(=O)O)CC(=O)O)cc3)ccc2n1` was what?
active

Hi, do you know how `CCOC(=O)c1ccc(N=Cc2cnc(N)nc2N)cc1` came out in this test?
inactive

Hello, I am checking results. What call was entered for CC(C)C1(NC(=O)C2C=C3c4cccc5[nH]cc(c45)CC3N(C)C2)OC2(O)C3CCCN3C(=O)C(Cc3ccccc3)N2C1=O (stereo not drawn) ?
inactive

For Cc1ccc(S(=O)(=O)OC2CCCC2OS(=O)(=O)c2ccc(C)cc2)cc1 (stereo not drawn) , what call appears in the results of this test?
inactive

Attribution: PubChem BioAssay AID248
